meta.source: patent US20180353501A1

- assayComment: Pharmacokinetics of intraperitoneal or intravenous injection in CD1 mice (plasma, LC/MS/MS)
- Assay type: in vivo
- conditionContext: male, CD1, mouse, plasma, ip, 10 mg/kg, IP 10 mg/kg, 0.25 h, read-out: Conc. Mouse 3
measurementKind: concentration at 0.25 h (ng/mL)

>  <compound>
COc1cc2c(Oc3ccc(NC(=O)C4(C(=O)Nc5ccc(F)cc5)CC4)cc3F)ccnc2cc1OCCCOCCCOCCC(=O)N[C@H](C(=O)N1C[C@H](O)C[C@H]1C(=O)NCc1ccc(-c2scnc2C)cc1)C(C)(C)C [Example 1]

>  <measurementKind>
concentration at 0.25 h

>  <measuredNumber>
990

$$$$
